# method: RFU comparison of solutions to release OsteoSense 750 from HA
# details: 10% solution with calcium chloride (1%), room temperature
% released of total reference value: recorded values
Report only the number, with the unit % understood.

I'd like to know its % released of total reference value. The molecule in question is O=P(O)(O)O 43.29

Follow-up entry: O=P([O-])([O-])O.[Na+].[Na+] [sodium phosphate dibasic (D), sodium phosphate dibasic] 5.28

Another: O=P(O)(O)CP(=O)(O)O 37.57

Now the same for O=P([O-])(O)O.[Na+] [sodium phosphate monobasic (M), sodium phosphate monobasic] 20.25

###

# method: Detection probes on interproximal models of extracted human teeth
# details: probe bound to interproximal enamel caries
Criterion: excitation/absorbance wavelength (nm) meeting or surpassing 700 nm. Met: rule met. Not met: rule not met.

Can C1=Cc2cc3ccc(cc4nc(cc5ccc(cc1n2)[nH]5)C=C4)[nH]3 [Porphyrin] be said to have excitation/absorbance wavelength (nm) at or above 700 nm? rule not met

Same for C=Cc1c(C)c2cc3nc(c4c5[n-]c(cc6nc(cc1[n-]2)C(C)=C6CC)c(C)c5C(=O)[C@@H]4C(=O)OC)[C@@H](CCC(=O)OC/C=C(\C)CCC[C@H](C)CCC[C@H](C)CCCC(C)C)[C@@H]3C.[Mg+2] [Chlorophyll A] rule not met

Moving on to the next compound: CC1(C)C(/C=C/C=C/C=C/C=C2\N(CCCCS(=O)(=O)O)c3ccc4ccccc4c3C2(C)C)=[N+](CCCCS(=O)(=O)[O-])c2ccc3ccccc3c21 [Indocyanine Green] rule met

Queued: COc1cccc2c1C(=O)c1c(O)c3c(c(O)c1C2=O)C[C@@](O)(C(=O)CO)C[C@@H]3O[C@H]1C[C@H](N)[C@H](O)[C@H](C)O1 [Doxorubicin] rule not met

Further cases:
Reported excitation/absorbance wavelength (nm) at or above 700 nm? CC1(C)C(=CC=C2CCCC(C=CC3=[N+](CCCCS(=O)(=O)[O-])c4ccc5ccccc5c4C3(C)C)=C2Cl)N(CCCCS(=O)(=O)[O-])c2ccc3ccccc3c21.[Na+] [IR820 (ICG)] rule met

###

Entries and their measured % released of total OsteoSense follow.
# method: RFU comparison of solutions to release OsteoSense 750 from HA
# details: 10% solution, pH 6.5, room temperature
Please respond with the number in % and leave the unit unwritten.

% released of total OsteoSense lookup needed for O=P([O-])([O-])O.[Na+].[Na+] [sodium phosphate dibasic (D), sodium phosphate dibasic] , thanks. 25.75

Repeat for the following molecule: O=P(O)(O)O 45.32

And the next one, O=P(O)(O)CP(=O)(O)O ? 59.77

With those in mind, consider the next molecule.
Looking for the measured % released of total OsteoSense of O=P([O-])(O)O.[Na+] [sodium phosphate monobasic (M), sodium phosphate monobasic] , can you help? 32.44

###

# method: Detection probes on interproximal models of extracted human teeth
# details: probe bound to interproximal enamel caries
Measured emission wavelength (nm) accompanies every entry in the list below.
State the answer as a number, implicitly in nm.

A selection of reference data follows.
Look at this compound and give its reported emission wavelength (nm). C1=Cc2cc3ccc(cc4nc(cc5ccc(cc1n2)[nH]5)C=C4)[nH]3 700

Moving on to COc1cccc2c1C(=O)c1c(O)c3c(c(O)c1C2=O)C[C@@](O)(C(=O)CO)C[C@@H]3O[C@H]1C[C@H](N)[C@H](O)[C@H](C)O1 630

// repeat for CC1(C)C(=CC=C2CCCC(C=CC3=[N+](CCCCS(=O)(=O)[O-])c4ccc5ccccc5c4C3(C)C)=C2Cl)N(CCCCS(=O)(=O)[O-])c2ccc3ccccc3c21.[Na+] and report 845

// switching to the query compound
Recorded emission wavelength (nm) of CC1(C)C(/C=C/C=C/C=C/C=C2\N(CCCCS(=O)(=O)O)c3ccc4ccccc4c3C2(C)C)=[N+](CCCCS(=O)(=O)[O-])c2ccc3ccccc3c21 , please. 835

###

As shown below, each of these compounds has a reported % released of total OsteoSense value.
# method: RFU comparison of solutions to release OsteoSense 750 from HA
# details: 5% solution, pH 6.5, room temperature
Please state the value followed by its unit.

// solved cases for % released of total OsteoSense follow
Field request: % released of total OsteoSense | item: O=P([O-])([O-])O.[Na+].[Na+] [sodium phosphate dibasic (D), sodium phosphate dibasic] 14.64%

Do the same for O=P(O)(O)O please 28.38%

Same thing, different compound: O=P([O-])(O)O.[Na+] [sodium phosphate monobasic (M), sodium phosphate monobasic] 23.87%

Please examine the following record next.
# lookup: % released of total OsteoSense of O=P(O)(O)CP(=O)(O)O 35.61%

###

# key: entry, value: % released of total OsteoSense
# method: RFU comparison of solutions to release OsteoSense 750 from HA
# details: 10% solution, 15 minutes at 37° C.
Hi, when you answer, please include the unit after the number. Thanks!

Solved cases (3 shown):
I would be grateful if you could share the reported % released of total OsteoSense for O=P(O)(O)O [phosphoric acid (PA), phosphoric acid] . 4.37%

Request: O=P([O-])([O-])O.[Na+].[Na+] [sodium phosphate dibasic (D), sodium phosphate dibasic] 27.90%

Can you check O=P(O)(O)CP(=O)(O)O [methylene phosphoric acid (MDP), methylene phosphoric acid] next? 56.56%

# ---- query molecule ----
Which % released of total OsteoSense is listed for O=P([O-])(O)O.[Na+] [sodium phosphate monobasic (M), sodium phosphate monobasic] ? 23.92%

###

Quick reference for % released of total reference value among some compounds
# method: RFU comparison of solutions to release OsteoSense 750 from HA
# details: 5% solution, 15 minutes at 37° C.
Express it in %; write the number only.

Solved cases below.
Tell me the measured % released of total reference value of O=P([O-])([O-])O.[Na+].[Na+] [sodium phosphate dibasic (D), sodium phosphate dibasic] , please. 13.12

Try this compound too: O=P([O-])(O)O.[Na+] [sodium phosphate monobasic (M), sodium phosphate monobasic] 13.11

Cool, now O=P(O)(O)CP(=O)(O)O 30.09

Continue with the next compound.
Name the recorded % released of total reference value for O=P(O)(O)O . 18.94

###

Listed compounds paired with reported Raw RFU value
# method: RFU comparison of solutions to release OsteoSense 750 from HA
# details: 1% solution with calcium chloride (1%), room temperature
Remember to follow the number with its unit.

Please review the entries below; each comes with its answer.
Quick one: Raw RFU value for O=P([O-])(O)O.[Na+] [sodium phosphate monobasic (M), sodium phosphate monobasic] ? 0.22 RFU

Moving on to O=P(O)(O)CP(=O)(O)O 0.54 RFU

What do you have for O=P([O-])([O-])O.[Na+].[Na+] [sodium phosphate dibasic (D), sodium phosphate dibasic] ? 0.00 RFU

# context switch: different compound, same Raw RFU value
So what does the record say about Raw RFU value for O=P(O)(O)O ? 0.38 RFU

###

# method: RFU comparison of solutions to release OsteoSense 750 from HA
# details: 1% solution, pH 6.5, room temperature
reported_property: Raw RFU value (RFU)
Response body: numeric value in RFU, unit text excluded.

Consider the following illustrative entries.
Give its Raw RFU value value. Item: O=P([O-])(O)O.[Na+] [sodium phosphate monobasic (M), sodium phosphate monobasic] 2.38

Moving on to O=P(O)(O)O [phosphoric acid (PA), phosphoric acid] 2.31

Please answer likewise for O=P([O-])([O-])O.[Na+].[Na+] [sodium phosphate dibasic (D), sodium phosphate dibasic] 0.68

# ---- query molecule ----
# get_value(readout='Raw RFU value', item= O=P(O)(O)CP(=O)(O)O [methylene phosphoric acid (MDP), methylene phosphoric acid] ) 1.35

###

Catalogue of Raw RFU value values
# method: RFU comparison of solutions to release OsteoSense 750 from HA
# details: 5% solution with calcium chloride (1%), room temperature
Quick reminder: number only, in RFU, skip the unit.

Report Raw RFU value for O=P([O-])(O)O.[Na+] [sodium phosphate monobasic (M), sodium phosphate monobasic] please. 2.00

Similarly, O=P(O)(O)O ? 3.54

// repeat for O=P(O)(O)CP(=O)(O)O and report 8.96

Further cases:
Request the reported Raw RFU value associated with O=P([O-])([O-])O.[Na+].[Na+] [sodium phosphate dibasic (D), sodium phosphate dibasic] 1.75

###

# method: RFU comparison of solutions to release OsteoSense 750 from HA
# details: 5% solution with calcium chloride (1%), room temperature
reported_property: % released of total OsteoSense
Kindly format the answer as number then unit.

In the examples that follow, each entry is paired with its recorded % released of total OsteoSense.
Quick one: % released of total OsteoSense for O=P([O-])([O-])O.[Na+].[Na+] [sodium phosphate dibasic (D), sodium phosphate dibasic] ? 4.67%

Consider next the compound O=P(O)(O)CP(=O)(O)O in the same way. 23.89%

Now give it for O=P(O)(O)O too. 9.44%

We next turn to a different compound, shown below.
What value of % released of total OsteoSense has been reported for the following compound? O=P([O-])(O)O.[Na+] [sodium phosphate monobasic (M), sodium phosphate monobasic] 5.34%
